Test system: 786-0 renal
Test: NCI-60 one-dose screen, 48 h
Conditions: 10 µM unless noted
This is part of a sample that, as a whole, favours compounds with a hit. Of some 83,000 tested, about 20% had one in any assay. The source made the active and inactive calls. How the source made its calls: active means growth percent below 10; inactive means the rest.
Tick one outcome: active, inactive

smiles-string: Fc1cc(F)cc(NNC(=S)c2ccccc2)c1
system-name: 786-0 renal
class: inactive
--
smiles-string: Fc1ccc2nc(-c3cnn4cccnc34)sc2c1
system-name: 786-0 renal
class: inactive

Data request: Called result for `Cn1cc(C2=C(c3coc4cc(Br)ccc34)C(=O)NC2=O)c2ccccc21`
Data returned: inactive

Data request: Called result for `O=C(COc1ccc(/C=C2\C(=O)Nc3ccc(F)cc32)cc1)Nc1ccccc1`
Data returned: inactive

Data request: Called result for `O=C1C(SCc2ccccc2)=C(Cl)CN1c1ccccc1`
Data returned: inactive

Data request: Called result for `O=C(CSc1nnc(-c2cccs2)n1-c1ccccc1)Nc1ccccc1F`
Data returned: inactive

Data request: Called result for `COc1ccc(CC(C)=C(c2ccc(OCCN3CCCC3)cc2)c2ccc(OCCN3CCCC3)cc2)cc1`
Data returned: active

Data request: Called result for `CC(C)(C)OC(=O)Nc1ccc(-c2cccc(Oc3ccc4nnc(Cl)n4n3)c2)cc1`
Data returned: inactive

Data request: Called result for `Cc1ccc(/C(N)=N/C(N)=N/c2nc3ccccc3s2)cc1`
Data returned: inactive

Data request: Called result for `C1=CC(c2nn3c(-c4ccccc4)nnc3s2)=Cc2ccccc2O1`
Data returned: inactive

* * *

growth values by entry
Tested on: UACC-257 melanoma
Test: NCI-60 one-dose screen, 48 h (100 = growth as untreated, 0 = no growth, -100 = all killed)
Details: 10 µM unless noted
This is part of a sample that, as a whole, favours compounds with a hit. Of some 83,000 tested, about 20% had one in any assay.
Report the figure in % without appending any unit label.

As a guide, the following entries are already answered.
smiles-string: O=C(CCCCCCNC(=O)C(O)(O)C(F)(F)F)Nc1nc2ccccc2s1
value: 8.93
--
smiles-string: COc1ccc(-c2c3c(cn2Cc2cccc(OC)c2)-c2oncc2CCC3)cc1
value: 96.6
--
smiles-string: C#C[C@]1(O)CC[C@H]2[C@@H]3CC=C4c5sc(NCc6ccccc6)nc5CC[C@]4(C)[C@H]3CC[C@@]21C
value: -10

Data request: Look up and state reported growth for `C=C(C)[C@@H]1CC[C@]2(C(=O)N3CCN(C)CC3)CC[C@]3(C)[C@H](CC[C@@H]4[C@@]5(C)CC[C@H](OP(=O)(OCC)OCC)C(C)(C)[C@@H]5CC[C@]43C)[C@@H]12`
Data returned: 82.9

Data request: Look up and state reported growth for `O=C(CSc1nnc(-c2cccs2)n1-c1ccccc1)Nc1ccccc1`
Data returned: 85.4

Data request: Look up and state reported growth for `O=C(/C=C/c1ccc(Cl)c(Cl)c1)Nc1ncc(Cc2ccc(Cl)c(Cl)c2)s1`
Data returned: 40.9

Data request: Look up and state reported growth for `CCc1nnc(NC(=O)c2cc(-c3ccc(Cl)cc3Cl)oc2C)s1`
Data returned: 103

* * *

Test system: NCI/ADR-RES ovarian
Assay: NCI-60 one-dose screen, 48 h (100 = growth as untreated, 0 = no growth, -100 = all killed)
Details: 10 µM unless noted
Compounds without any hit were thinned out: in the full panel of roughly 83,000, 20% have a hit.
growth values by entry
Report the figure in % without appending any unit label.

molecule: CC1=C(C)C(=O)C(Nc2ccc3c(c2)OCO3)=C(Br)C1=O
unit-descriptor: %
growth: 97.4
--
molecule: C=C(C)[C@@H]1CC[C@]2(COCCCNCCCN)CC[C@]3(C)[C@H](CC[C@@H]4[C@@]5(C)CC[C@H](O)C(C)(C)[C@@H]5CC[C@]43C)[C@@H]12
unit-descriptor: %
growth: -65.5
--
molecule: CN1CCN(CCNc2nc(-c3cccc(NS(=O)(=O)c4cccc5c(N(C)C)cccc45)c3)cs2)CC1
unit-descriptor: %
growth: 86.9
--
molecule: CC(C)(C)OC(=O)Nc1ccc(-c2cccc(Oc3ccc4nnc(Cl)n4n3)c2)cc1
unit-descriptor: %
growth: 70.8
--
molecule: Cc1[nH]c(C(=O)Nc2ccccc2OCc2cccc(C(=O)NCCN)c2)cc1Cl
unit-descriptor: %
growth: 99.4

Data request: Look up and state reported growth for CC[C@]12CC(C(=O)OC)=C3Nc4ccccc4[C@@]34CCN(C14)[C@@H]1c3cc4c(cc3O[C@@H]1[C@H]2O)NC1=C(C(=O)OC)C[C@@]2(CC)C3N(CC[C@@]143)C[C@H]1O[C@H]12 (some centres not stated)
Data returned: 1.07

Data request: Look up and state reported growth for `CCOC(=O)c1c(NC(=O)c2ccc(C(F)(F)F)cc2)sc2c3c(ccc12)OCN(C)C3`
Data returned: 51.9

Data request: Look up and state reported growth for `Cc1ccc2c(n1)C(=O)C(Cl)=C(Nc1ccccc1C(=O)OC(C)(C)C)C2=O`
Data returned: 64.2

Data request: Look up and state reported growth for `C#CCn1cc(/C=N/Nc2nc(-c3ccc(Br)cc3)cs2)c2ccccc21`
Data returned: 101

Data request: Look up and state reported growth for `CC(C)=CCC[C@](C)(O)[C@H]1CC[C@]2(C)[C@@H]1CC[C@@H]1[C@@]3(C)CC[C@H](N)C(C)(C)[C@@H]3CC[C@]12C`
Data returned: 88.9

Data request: Look up and state reported growth for O=S1SC(c2ccccc2)=NN1c1cc(F)cc(F)c1 (configuration not stated)
Data returned: 53.4

Data request: Look up and state reported growth for Cc1[nH]c(C(=O)Nc2ccc(C(N)=O)cc2N2CCOC(C)C2)c(Cl)c1Cl (configuration not stated)
Data returned: 93.7

Data request: Look up and state reported growth for `CC(=O)c1c([Si](C)(C)C)c2cc(C#N)ccn2c1C(=O)c1ccc(Br)cc1`
Data returned: 88.6

Data request: Look up and state reported growth for `CC/C(=C(/c1ccc(Cl)cc1)c1ccc(OCCN)cc1)c1ccccc1`
Data returned: 99.9

Data request: Look up and state reported growth for `COc1cc(/C=N\NC(=O)c2ccc3nc(-c4ccc(Br)cc4)[nH]c3c2)cc(OC)c1OC`
Data returned: 95.9

Data request: Look up and state reported growth for CC(Nc1c(C#N)cnc2ccc(-c3cncc(-c4n[nH]c(=O)o4)c3)cc12)c1ccccc1 (configuration not stated)
Data returned: 67.7

Data request: Look up and state reported growth for `COc1cc(-c2nc(-c3ccccc3)[nH]c2-c2ccnc(NCCCNS(=O)(=O)c3cccc(F)c3)n2)ccc1F`
Data returned: 92.1
